- TESTED_TARGET: Human factor D (Homo sapiens)
- Construct: purified from human serum; purchased Complement Technology, Inc; host or cells: human serum
- Sequence (P00746 26-253): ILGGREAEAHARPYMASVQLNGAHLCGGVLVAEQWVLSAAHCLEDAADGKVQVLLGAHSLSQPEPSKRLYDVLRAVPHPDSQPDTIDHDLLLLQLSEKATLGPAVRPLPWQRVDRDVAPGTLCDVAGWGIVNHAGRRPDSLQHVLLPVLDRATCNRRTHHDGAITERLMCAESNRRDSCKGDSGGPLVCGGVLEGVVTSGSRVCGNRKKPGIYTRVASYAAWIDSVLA
- ASSAY_METHOD_TEXT: Human Factor D Assay (Factor D inhibition assay)
- Assay type: biochemical
pIC50: −log10 of the molar value.
VALUE_KIND: pIC50

Short answer please: pIC50, Human factor D (Homo sapiens), entry CC(=O)c1cn(CC(=O)N2C[C@H](F)C[C@H]2C(=O)Nc2cccc(Oc3ccccc3)c2)c2cc(OCP(=O)(O)O)ccc12 [Compound 232]
5.00 to 6.00

Values compiled from patent US20170226142A1.
